System: HEL
Procedure summary: Antiproliferative activity against human HEL cells after 48 hrs by MTT assay
Format: functional, cell-based
pIC50: −log10 of the molar value.
Assay readout: pIC50

[[record]]
structure = "O=C(CN1C(=O)C2(OCCCCO2)c2cc(Cl)ccc21)Nc1ccc(C(=O)NO)cc1"
assay_readout = "pIC50"
test_value = 5.89

[[record]]
structure = "O=C(CN1C(=O)C2(OCCCO2)c2cc(Br)ccc21)Nc1ccc(C(=O)NO)cc1"
assay_readout = "pIC50"
test_value = 6.25

[[record]]
structure = "O=C(CCN1C(=O)C2(OCCCO2)c2cc(Br)ccc21)Nc1ccc(C(=O)NO)cc1"
assay_readout = "pIC50"
test_value = 6.48

[[record]]
structure = "O=C(CCCN1C(=O)C2(OCCCO2)c2cc(Br)ccc21)Nc1ccc(C(=O)NO)cc1"
assay_readout = "pIC50"
test_value = 6.47

[[record]]
structure = "O=C(CN1C(=O)C2(OCCCCO2)c2cc(Br)ccc21)Nc1ccc(C(=O)NO)cc1"
assay_readout = "pIC50"
test_value = 6.19

[[record]]
structure = "O=C(CN1C(=O)C2(OCCCO2)c2cc(Cl)ccc21)Nc1ccc(C(=O)NO)cc1"
assay_readout = "pIC50"
test_value = 5.90

